Taken from PubChem BioAssay AID2060485.

- Test system: A375 multi-cell spheroids with HUVEC/MSC, viability
- Procedure text: Anticancer human tumor A375 cell line growth inhibition [GQUAD];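 further: spheroids exposed to compounds for seven days before readout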
- Conditions: second compound 1 µM; first compound 0.0316 µM; stronger effect = lower value
Quantity kind: viability, T/C (%)
Response body: numeric value in %, unit text excluded.

These solved cases illustrate the format of a correct answer.
>>> measured_number("Cc1[nH]c2ccccc2c1CCNCc1ccc(/C=C/C(=O)NO)cc1 + Cc1cnc(CNC(=O)c2c(=O)c3ccc(N4CCCN(C)CC4)nc3n3c2sc2ccccc23)cn1")
35.4
>>> measured_number("Cn1ncnc1[C@H]1c2n[nH]c(=O)c3cc(F)cc(c23)N[C@@H]1c1ccc(F)cc1 + CN(C)c1ccc(Nc2c3ccc(NC(=O)CCN4CCCC4)cc3nc3cc(NC(=O)CCN4CCCC4)ccc23)cc1")
110

Pending compound:
Prompt: Give viability, T/C (A375 multi-cell spheroids with HUVEC/MSC, viability) of the following compound: O=C(NO)c1cnc(N2CCN(S(=O)(=O)c3ccc4ccccc4c3)CC2)nc1 + CN(C)c1ccc(Nc2c3ccc(NC(=O)CCN4CCCC4)cc3nc3cc(NC(=O)CCN4CCCC4)ccc23)cc1
Completion: 104

---

- Tested on: A375 multi-cell spheroids with HUVEC/MSC, viability
- Procedure text: Anticancer human tumor A375 cell line growth inhibition [GQUAD];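 further: spheroids exposed to compounds for seven days before readout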
- Conditions: second compound 0.1 µM; first compound 0.00316 µM; stronger effect = lower value
- From the text: DNA G-quadruplex Stabilizer Agents in Combinations in Complex Spheroids A high-throughput screen of multi-cell type tumor spheroids was designed to identify active combinations of DNA G-quadruplex stabilizer agents and targeted small molecules. […] Compounds. […] If the clinical Cmax for an agent had not been determined, the highest concentration tested was 10 microM. […]
Quantity kind: viability, T/C (%)
Numeric only. Scale: %

Past entries and their recorded results:
>>> measured_number("CCc1c2c(nc3ccc(O)cc13)-c1cc3c(c(=O)n1C2)COC(=O)[C@]3(O)CC + Cc1[nH]c2ccc(F)cc2c1-c1nc2c3cccnc3c3ncccc3c2[nH]1")
20.4
>>> measured_number("Cn1ncnc1[C@H]1c2n[nH]c(=O)c3cc(F)cc(c23)N[C@@H]1c1ccc(F)cc1 + Cc1[nH]c2ccc(F)cc2c1-c1nc2c3cccnc3c3ncccc3c2[nH]1")
97.5
>>> measured_number("Cc1[nH]c2ccccc2c1CCNCc1ccc(/C=C/C(=O)NO)cc1 + Cc1cnc(CNC(=O)c2c(=O)c3ccc(N4CCCN(C)CC4)nc3n3c2sc2ccccc23)cn1")
69.7

Prompt: Consider the compound shown here: Cn1ncnc1[C@H]1c2n[nH]c(=O)c3cc(F)cc(c23)N[C@@H]1c1ccc(F)cc1 + Cc1cnc(CNC(=O)c2c(=O)c3ccc(N4CCCN(C)CC4)nc3n3c2sc2ccccc23)cn1 What is its recorded viability, T/C?
Completion: 73.7

Prompt: Would you mind telling me what viability, T/C value was observed for CC[C@@]1(O)C(=O)OCc2c1cc1n(c2=O)Cc2cc3c(CN(C)C)c(O)ccc3nc2-1 + Cc1[nH]c2ccc(F)cc2c1-c1nc2c3cccnc3c3ncccc3c2[nH]1 ?
Completion: 105

Prompt: Name the reported viability, T/C value associated with the compound Cc1[nH]c2ccccc2c1CCNCc1ccc(/C=C/C(=O)NO)cc1 + CN(C)c1ccc(Nc2c3ccc(NC(=O)CCN4CCCC4)cc3nc3cc(NC(=O)CCN4CCCC4)ccc23)cc1
Completion: 110

---

Measured pIC50 of individual entries
- System: A375 multi-cell spheroids with HUVEC/MSC, viability
- Procedure text: Anticancer human tumor A375 cell line growth inhibition [GQUAD];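 further: spheroids exposed to compounds for seven days before readout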
- Conditions: curve of first compound; second compound 0.0316 µM
pIC50: −log10 of the molar value.

Record excerpt, results attached:
>>> result("CC(=O)O[C@H]1C(=O)[C@@]2(C)[C@H]([C@H](OC(=O)c3ccccc3)[C@]3(O)C[C@H](OC(=O)[C@H](O)[C@@H](NC(=O)c4ccccc4)c4ccccc4)C(C)=C1C3(C)C)[C@]1(OC(C)=O)CO[C@@H]1C[C@@H]2O + CN(C)c1ccc(Nc2c3ccc(NC(=O)CCN4CCCC4)cc3nc3cc(NC(=O)CCN4CCCC4)ccc23)cc1")
7.21
>>> result("CC(=O)O[C@H]1C(=O)[C@@]2(C)[C@H]([C@H](OC(=O)c3ccccc3)[C@]3(O)C[C@H](OC(=O)[C@H](O)[C@@H](NC(=O)c4ccccc4)c4ccccc4)C(C)=C1C3(C)C)[C@]1(OC(C)=O)CO[C@@H]1C[C@@H]2O + Cc1cnc(CNC(=O)c2c(=O)c3ccc(N4CCCN(C)CC4)nc3n3c2sc2ccccc23)cn1")
7.19
>>> result("COc1ccc([C@@H](O)c2cc(-c3ncnc4cc(N5CCOCC5)ccc34)c(F)cc2Cl)nn1 + Cc1[nH]c2ccc(F)cc2c1-c1nc2c3cccnc3c3ncccc3c2[nH]1")
"< 5.00"
>>> result("O=c1[nH]cc(F)c(=O)[nH]1 + Cc1[nH]c2ccc(F)cc2c1-c1nc2c3cccnc3c3ncccc3c2[nH]1")
"< 5.00"
>>> result("CC(C)n1c(=O)n(C)c2cnc3cc(F)c(-c4ccc(OCCCN5CCCCC5)nc4)cc3c21 + Cc1[nH]c2ccc(F)cc2c1-c1nc2c3cccnc3c3ncccc3c2[nH]1")
"< 5.00"

Prompt: Using the record for Cc1cccc(N(C)C(=O)C2C(O)CCN2c2nc(C)cc(C(F)(F)F)c2C#N)c1 (stereo unspecified) + Cc1[nH]c2ccc(F)cc2c1-c1nc2c3cccnc3c3ncccc3c2[nH]1 , report its pIC50.
Completion: < 5.00

Prompt: Sample CC(C)n1c(=O)n(C)c2cnc3cc(F)c(-c4ccc(OCCCN5CCCCC5)nc4)cc3c21 + Cc1cnc(CNC(=O)c2c(=O)c3ccc(N4CCCN(C)CC4)nc3n3c2sc2ccccc23)cn1 — what was its pIC50?
Completion: < 5.00

Prompt: For the compound CC[C@@]1(O)C(=O)OCc2c1cc1n(c2=O)Cc2cc3c(CN(C)C)c(O)ccc3nc2-1 + Cc1[nH]c2ccc(F)cc2c1-c1nc2c3cccnc3c3ncccc3c2[nH]1 , what pIC50 is on record?
Completion: 7.28

---

- Tested on: A375 multi-cell spheroids with HUVEC/MSC, viability
- Procedure text: Anticancer human tumor A375 cell line growth inhibition [GQUAD];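 further: spheroids exposed to compounds for seven days before readout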
- Conditions: curve of first compound; second compound 3.16 µM
// reported IC50 for each item listed
Report only the number, with the unit nM understood.

>>> measured_number("C=CCn1c(=O)c2cnc(Nc3ccc(N4CCN(C)CC4)cc3)nc2n1-c1cccc(C(C)(C)O)n1 + Cc1[nH]c2ccc(F)cc2c1-c1nc2c3cccnc3c3ncccc3c2[nH]1")
72.2

Continue with the compound presented below.
Prompt: Provide value of IC50 for this record tested with A375 multi-cell spheroids with HUVEC/MSC, viability: CC(C)(O)C1CCC(Nc2ccc3ncc(-c4cccc(C(F)(F)F)c4)n3n2)CC1 (stereo not given) + Cc1[nH]c2ccc(F)cc2c1-c1nc2c3cccnc3c3ncccc3c2[nH]1
Completion: 66.7

---

- System: A375 multi-cell spheroids with HUVEC/MSC, viability
- Procedure text: Anticancer human tumor A375 cell line growth inhibition [GQUAD];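 further: spheroids exposed to compounds for seven days before readout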
- Conditions: second compound 1 µM; first compound 1 µM; stronger effect = lower value
Quantity kind: viability, T/C

Past entries and their recorded results:
>>> result("CC1COCCN1c1cc(C2(O)CC3CCC(C2)O3)c2cnn(-c3ccn[nH]3)c2n1 (stereo not given) + Cc1cnc(CNC(=O)c2c(=O)c3ccc(N4CCCN(C)CC4)nc3n3c2sc2ccccc23)cn1")
"14.4%"
>>> result("COc1cccc2c1C(=O)c1c(O)c3c(c(O)c1C2=O)CC(O)(C(=O)CO)CC3OC1CC(N)C(O)C(C)O1 (stereo not given) + Cc1cnc(CNC(=O)c2c(=O)c3ccc(N4CCCN(C)CC4)nc3n3c2sc2ccccc23)cn1")
"15.2%"

Prompt: Could you share which viability, T/C value was measured for COc1cc(C2c3cc4c(cc3C(OC3OC5COC(C)OC5C(O)C3O)C3COC(=O)C23)OCO4)cc(OC)c1O (stereo not given) + Cc1[nH]c2ccc(F)cc2c1-c1nc2c3cccnc3c3ncccc3c2[nH]1 ?
Completion: 62.5%

Prompt: Given the entry CC(C)(O)C1CCC(Nc2ccc3ncc(-c4cccc(C(F)(F)F)c4)n3n2)CC1 (stereo not given) + Cc1[nH]c2ccc(F)cc2c1-c1nc2c3cccnc3c3ncccc3c2[nH]1 , report its measured viability, T/C.
Completion: 93.6%

Prompt: Please report the recorded viability, T/C for CC1COCCN1c1cc(-c2ccnn2C)c2ccnc(-c3ccn[nH]3)c2n1 (stereo not given) + CN(C)c1ccc(Nc2c3ccc(NC(=O)CCN4CCCC4)cc3nc3cc(NC(=O)CCN4CCCC4)ccc23)cc1 .
Completion: 27.5%

Prompt: Fill in: viability, T/C of Nc1ccn(C2OC(CO)C(O)C2(F)F)c(=O)n1 (stereo not given) + Cc1[nH]c2ccc(F)cc2c1-c1nc2c3cccnc3c3ncccc3c2[nH]1 is ___
Completion: 13.6%

Prompt: Entry under review: CC(=O)O[C@H]1C(=O)[C@@]2(C)[C@H]([C@H](OC(=O)c3ccccc3)[C@]3(O)C[C@H](OC(=O)[C@H](O)[C@@H](NC(=O)c4ccccc4)c4ccccc4)C(C)=C1C3(C)C)[C@]1(OC(C)=O)CO[C@@H]1C[C@@H]2O + Cc1[nH]c2ccc(F)cc2c1-c1nc2c3cccnc3c3ncccc3c2[nH]1 . Reported viability, T/C?
Completion: 13.7%

Prompt: Please give the measured viability, T/C for this compound: COc1ccc([C@@H](O)c2cc(-c3ncnc4cc(N5CCOCC5)ccc34)c(F)cc2Cl)nn1 + CN(C)c1ccc(Nc2c3ccc(NC(=O)CCN4CCCC4)cc3nc3cc(NC(=O)CCN4CCCC4)ccc23)cc1
Completion: 111%

Prompt: Can you look up the measured viability, T/C of Cc1cccc(N(C)C(=O)C2C(O)CCN2c2nc(C)cc(C(F)(F)F)c2C#N)c1 (stereo not given) + Cc1[nH]c2ccc(F)cc2c1-c1nc2c3cccnc3c3ncccc3c2[nH]1 for me?
Completion: 109%

Prompt: Need viability, T/C of CCCS(=O)(=O)Nc1ccc(F)c(C(=O)c2c[nH]c3ncc(-c4ccc(Cl)cc4)cc23)c1F + CN(C)c1ccc(Nc2c3ccc(NC(=O)CCN4CCCC4)cc3nc3cc(NC(=O)CCN4CCCC4)ccc23)cc1 , thanks.
Completion: 6.06%
